# PROTOCOL_NOTES: BSK_4H_SRB: Viability Assessment in the BioMAP Diversity Plus: 4H Assay (AID 2283027);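 note: cells exposed to compound for 24 h before staining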
# CONDITIONS: primary human endothelial cells (HUVEC)
Calls of active or inactive are those of the source. Rule for the calls: active = hit-call score of the fitted dose curve at least 0.9, where 1 is the maximum; inactive = score below 0.9.
Answer with one of the outcomes active, inactive

Solved entries:
CCN(CC)C(=O)c1cc(S(=O)(=O)Cc2ccccc2)c(N2CCC(c3ccccc3)CC2)cc1N(CC)CCN(C)C ... active
CCCCCCCCCCCC[N+](C)(C)C ... active
Cc1cn([C@H]2C[C@H](N=[N+]=[N-])[C@@H](CO)O2)c(=O)[nH]c1=O ... inactive
c1ccc(C[n+]2cccc3ccccc32)cc1 ... inactive
Cc1oc2c(NC(=O)c3c(Cl)cccc3Cl)cccc2c1C(C)(C)O ... active

Lab log entry: O=C1O[C@H]([C@@H](O)CO)C(O)=C1O — outcome as called in the assay?
inactive

How about this compound: c1ccc2ccccc2c1
inactive

Query CCCCOC(=O)c1ccc(O)cc1 next
inactive

Entry CC(C)(c1cc(Br)c(O)c(Br)c1)c1cc(Br)c(O)c(Br)c1 please
active

Another compound: O=C(O)c1ccccc1-n1cc(C(=O)O)c(=O)c2cc(Nc3c(F)cc(F)cc3Cl)c(Cl)cc21
inactive

Input CCCC(=O)OCCC(C)C
inactive

Input c1ccc2n[nH]nc2c1
inactive

Try CC[C@H](NC(=O)c1cc(F)ccc1NS(=O)(=O)c1cccc2cccnc12)c1ccccc1 next.
inactive

Moving on to the next compound: CCCCCCCCCCCO
inactive

Thanks! And Cc1ncc(CO)c(CO)c1O ?
inactive

Do the same for CC(C)(C)c1cc(/C=C2\SC(N)=NC2=O)cc(C(C)(C)C)c1O please
active

Now this one: Cc1cc(F)ccc1-c1cc(N2CC[C@@H](O)[C@H]2CO)ncc1N(C)C(=O)C(C)(C)c1cc(C(F)(F)F)cc(C(F)(F)F)c1
active

And then C[C@]12CC[C@@H]3c4ccc(O)cc4CC[C@H]3[C@@H]1CC[C@H]2O , what is it?
active

Please do the same for CC[C@@H]1C[C@H](N(Cc2cc(C(F)(F)F)cc(C(F)(F)F)c2)C(C)=O)c2cc(C(F)(F)F)ccc2N1C(=O)OC(C)C as well.
inactive

Try O=C1c2ccccc2C(=O)N1CCc1noc(-c2ccc(CN3CCCCCC3)s2)n1 next.
inactive

Also check Oc1ccccc1
inactive
